- systemUnderTest: ENPP1 (Homo sapiens, UniProt P22413)
- Sequence (P22413 whole entry, species assumed): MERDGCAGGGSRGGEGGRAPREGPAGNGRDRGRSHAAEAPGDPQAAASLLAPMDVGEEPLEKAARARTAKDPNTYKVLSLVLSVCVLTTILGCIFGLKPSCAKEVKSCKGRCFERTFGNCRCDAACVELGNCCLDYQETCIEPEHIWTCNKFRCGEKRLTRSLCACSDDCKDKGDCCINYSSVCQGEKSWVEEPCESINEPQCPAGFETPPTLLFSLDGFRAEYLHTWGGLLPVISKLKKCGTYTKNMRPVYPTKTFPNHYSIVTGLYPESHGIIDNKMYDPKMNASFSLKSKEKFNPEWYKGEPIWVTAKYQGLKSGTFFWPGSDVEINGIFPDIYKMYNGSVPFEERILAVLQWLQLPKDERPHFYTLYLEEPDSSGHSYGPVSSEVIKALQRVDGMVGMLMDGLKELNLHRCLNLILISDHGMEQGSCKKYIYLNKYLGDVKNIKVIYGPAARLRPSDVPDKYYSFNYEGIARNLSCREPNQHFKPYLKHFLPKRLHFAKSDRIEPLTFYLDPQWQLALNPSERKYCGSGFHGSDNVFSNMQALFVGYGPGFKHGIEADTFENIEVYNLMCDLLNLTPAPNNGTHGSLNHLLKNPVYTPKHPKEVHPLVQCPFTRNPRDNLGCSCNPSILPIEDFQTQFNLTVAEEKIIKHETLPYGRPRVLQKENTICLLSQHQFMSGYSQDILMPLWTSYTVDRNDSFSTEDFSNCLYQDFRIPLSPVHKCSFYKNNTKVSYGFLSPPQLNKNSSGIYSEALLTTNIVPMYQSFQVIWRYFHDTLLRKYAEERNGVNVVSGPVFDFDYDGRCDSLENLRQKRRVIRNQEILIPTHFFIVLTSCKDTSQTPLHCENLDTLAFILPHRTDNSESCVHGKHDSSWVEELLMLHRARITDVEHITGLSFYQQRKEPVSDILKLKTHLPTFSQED
- experimentalDetails: Measurement of pNP-TMP hydrolysis by ENPP1 (enzyme activity assay, absorbance at 405 nm)
- Type: biochemical
property: Ki

input: Recorded Ki for `NC(=O)c1ccc2c(ncn2Cc2ccc(P(=O)(O)O)cc2)n1` , please?
output: < 100 nM

###

- systemUnderTest: UniProt:P22413
- experimentalDetails: Measurement of pNP-TMP hydrolysis by ENPP1 (enzyme activity assay, absorbance at 405 nm)
- Assay type: biochemical
- measurementSetup: substrate pNP-TMP 500 μM, KM 232 μM; Ki from IC50 by Cheng-Prusoff; read-out: Ki (pNP-TMP)
pKi: −log10 of the molar value.
property: pKi

input: Recorded pKi for Cc1nc2nc(C(N)=O)ccc2n1Cc1ccc(B(O)O)cc1 [Compound 144] , please?
output: > 8.00

input: Recorded pKi for O=c1[nH]cnc2c1c(F)cn2Cc1ccc(B(O)O)cc1 [Compound 63] , please?
output: > 7.00

input: Recorded pKi for OB(O)c1ccc(Cn2ccc3c(O)nccc32)cc1 [Compound 9] , please?
output: > 8.00

input: Recorded pKi for CC(C)c1nc2cc(C(N)=O)ccc2n1Cc1ccc(B(O)O)cc1 [Compound 37] , please?
output: > 8.00

input: Recorded pKi for O=c1[nH]cnc2c1ncn2Cc1ccc(B(O)O)cc1 [Compound 3] , please?
output: > 6.00

input: Recorded pKi for COc1cccc2c1nc(C)n2Cc1ccc(B(O)O)cc1 [Compound 95] , please?
output: > 7.00

###

- systemUnderTest: ENPP1 (Homo sapiens)
- experimentalDetails: Measurement of pNP-TMP hydrolysis by ENPP1 (enzyme activity assay, absorbance at 405 nm)
- Format: biochemical
- measurementSetup: substrate pNP-TMP 500 μM, KM 232 μM; Ki from IC50 by Cheng-Prusoff; read-out: Ki (pNP-TMP)
property: Ki

input: Recorded Ki for Cc1cc2nc(C(N)=O)ccc2n1Cc1ccc(B(O)O)cc1 [Compound 77] , please?
output: < 10 nM

input: Recorded Ki for NC(=O)c1ccc2c(c1)c(Cl)cn2Cc1ccc(P(=O)(O)O)cc1 [Compound 143] , please?
output: < 1000 nM

input: Recorded Ki for CC(C)c1nc2c(O)nccc2n1Cc1ccc(B(O)O)cc1 [Compound 75] , please?
output: < 100 nM

input: Recorded Ki for CCc1nc2ccnc(O)c2n1Cc1ccc(B(O)O)cc1 [Compound 74] , please?
output: < 1000 nM

input: Recorded Ki for COc1ccc2c(ncn2Cc2ccc(B(O)O)cc2)n1 [Compound 125] , please?
output: < 10 nM

input: Recorded Ki for N#Cc1ccc2c(ncn2Cc2ccc(B(O)O)cc2)n1 [Compound 70] , please?
output: < 10 nM

input: Recorded Ki for NC(=O)c1ccc2c(ccn2Cc2ccc(P(=O)(O)O)cc2)c1 [Compound 142] , please?
output: < 1000 nM

input: Recorded Ki for NC(=O)c1nccc2c1ncn2Cc1ccc(B(O)O)cc1 [Compound 96] , please?
output: < 10 nM

input: Recorded Ki for NC(=O)c1ccc2c(c1)ncn2Cc1ccc(P(=O)(O)O)cc1 [Compound 49] , please?
output: < 1000 nM

###

- systemUnderTest: ENPP1 (Homo sapiens, UniProt P22413)
- experimentalDetails: Measurement of pNP-TMP hydrolysis by ENPP1 (enzyme activity assay, absorbance at 405 nm)
- Format: biochemical
- measurementSetup: substrate pNP-TMP 500 μM, KM 232 μM; Ki from IC50 by Cheng-Prusoff; read-out: Ki (pNP-TMP)
Readings of Ki for the listed compounds

input: Recorded Ki for `NC(=O)c1ccc2c(cnn2Cc2ccc(B(O)O)cc2)c1` , please?
output: < 100 nM

input: Recorded Ki for `NC(=O)c1ccc2c(ncn2Cc2ccc(B(O)O)cc2)n1` , please?
output: < 10 nM

input: Recorded Ki for `COC(=O)c1ccc2c(c1)ncn2Cc1ccc(B(O)O)cc1` , please?
output: < 100 nM

input: Recorded Ki for `CC(C)c1nc2nc(C(N)=O)ccc2n1Cc1ccc(B(O)O)cc1` , please?
output: < 10 nM

input: Recorded Ki for `NC(=O)c1ccc2c(ncn2Cc2ccc(B(O)O)cc2)c1N` , please?
output: < 100 nM

input: Recorded Ki for `O=P(O)(O)c1ccc(Cn2ccc3c(O)nccc32)cc1` , please?
output: < 100 nM

input: Recorded Ki for `Cc1nc2cc(C(N)=O)ccc2n1Cc1ccc(P(=O)(O)O)cc1` , please?
output: < 100 nM

Reference source: patent US12029744B2
